# target-of-assay: NR1/NR2B (Homo sapiens (Human), UniProt Q05586+Q13224)
# Sequence (Q13224 27-1484, other chains not shown): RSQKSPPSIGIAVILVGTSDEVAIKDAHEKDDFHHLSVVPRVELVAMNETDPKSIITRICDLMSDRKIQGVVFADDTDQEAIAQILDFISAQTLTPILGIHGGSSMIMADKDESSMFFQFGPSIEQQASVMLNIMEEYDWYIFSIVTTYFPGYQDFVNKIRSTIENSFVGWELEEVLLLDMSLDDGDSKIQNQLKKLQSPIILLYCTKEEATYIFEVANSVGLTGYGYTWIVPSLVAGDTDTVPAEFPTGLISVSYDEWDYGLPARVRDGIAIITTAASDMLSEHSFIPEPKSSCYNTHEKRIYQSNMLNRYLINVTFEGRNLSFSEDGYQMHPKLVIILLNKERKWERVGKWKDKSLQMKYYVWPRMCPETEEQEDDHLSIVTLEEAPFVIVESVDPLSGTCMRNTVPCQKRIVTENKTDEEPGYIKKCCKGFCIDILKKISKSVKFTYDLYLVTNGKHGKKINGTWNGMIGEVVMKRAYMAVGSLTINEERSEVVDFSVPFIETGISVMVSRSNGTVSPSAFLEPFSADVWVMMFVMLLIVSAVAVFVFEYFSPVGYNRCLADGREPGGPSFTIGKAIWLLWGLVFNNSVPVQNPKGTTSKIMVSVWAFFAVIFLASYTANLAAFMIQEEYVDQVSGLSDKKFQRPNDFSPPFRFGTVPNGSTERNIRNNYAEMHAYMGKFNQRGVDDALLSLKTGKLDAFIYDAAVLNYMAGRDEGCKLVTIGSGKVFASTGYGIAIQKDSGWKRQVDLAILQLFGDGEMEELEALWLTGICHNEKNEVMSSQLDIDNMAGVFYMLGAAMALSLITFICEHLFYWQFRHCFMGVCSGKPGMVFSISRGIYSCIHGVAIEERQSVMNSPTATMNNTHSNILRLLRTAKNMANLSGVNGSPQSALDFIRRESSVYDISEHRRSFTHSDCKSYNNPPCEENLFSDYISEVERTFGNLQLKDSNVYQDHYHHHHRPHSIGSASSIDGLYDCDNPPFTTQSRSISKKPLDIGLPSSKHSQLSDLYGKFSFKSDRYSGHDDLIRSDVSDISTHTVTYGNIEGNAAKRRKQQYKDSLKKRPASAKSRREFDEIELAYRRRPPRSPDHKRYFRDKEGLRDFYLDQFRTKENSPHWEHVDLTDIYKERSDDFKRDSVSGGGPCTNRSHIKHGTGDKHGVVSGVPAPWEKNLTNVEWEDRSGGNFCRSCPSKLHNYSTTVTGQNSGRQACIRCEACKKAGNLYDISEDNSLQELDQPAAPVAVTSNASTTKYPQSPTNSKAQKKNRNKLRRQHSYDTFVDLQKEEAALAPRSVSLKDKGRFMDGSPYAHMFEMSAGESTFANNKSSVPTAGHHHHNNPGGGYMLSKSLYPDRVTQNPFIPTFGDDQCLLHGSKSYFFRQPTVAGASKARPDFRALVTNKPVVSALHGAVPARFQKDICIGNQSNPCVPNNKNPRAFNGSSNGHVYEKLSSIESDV
# assay-summary: Cell assay: FDSS Ca2+ influx inhibition in HEK293 cells expressing NR1/NR2B;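 also: Fluo-8 Ca2+ signal read on Hamamatsu FDSS 6000 after glutamate, glycine and Ca2+ challenge following 10 min compound preincubation, end/baseline fluorescence ratio compared with MK801 control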
# conditions: Binned Activity, HEK293 cells expressing NR1/NR2B, Ca2+ influx; binned NR2B NAM IC50
recorded-metric: IC50

>>> df
                                   compound  recorded_metric     reported
0  Oc1ccc(C(O)CN2C[C@@H]3C[C@@](F)(Cc4ccccc4)C[C@@H]3C2)cc1 (mixture of isomers)             IC50     < 0.1 µM
1  O=C(Nc1cccc(C(F)(F)F)c1)N1C[C@@H]2C[C@@](O)(c3ccccc3)C[C@@H]2C1             IC50      > 10 µM
2  O=C(CN1C[C@@H]2C[C@@](O)(Cc3cccc(F)c3F)C[C@@H]2C1)c1ccc(O)cn1             IC50   1 to 10 µM
3  Oc1ccc(C(O)CN2C[C@H]3CN(Cc4ccccc4)C[C@H]3C2)cc1 (mixture of isomers)             IC50  0.1 to 1 µM
4  O=C(CN1C[C@@H]2C[C@@](O)(CC3CCCCC3)C[C@@H]2C1)c1ccc(O)cn1             IC50      > 10 µM
5  O=C(CN1C[C@@H]2C[C@@](O)(Cc3ccccc3)C[C@@H]2C1)c1cc(F)c(O)c(F)c1             IC50      > 10 µM
6  Oc1cnc(C(O)CN2C[C@@H]3C[C@@](O)(Cc4ccccc4)C[C@@H]3C2)nc1 (mixture of isomers)             IC50   1 to 10 µM
